Measured TGI, listed per entry for reference.
# Test system: OVCAR-4 ovarian
# assay.remarks: NCI tumour cell line growth inhibition, 48 h

Here is how some compounds turned out for TGI.
INSERT INTO assay_data (compound, test_system, meas_value) VALUES
  ('CN1CCN(CCCNc2nc3ccc(Oc4ccc(NC(=O)Nc5cc(C(F)(F)F)ccc5F)cc4)cc3[nH]2)CC1', 'OVCAR-4 ovarian', '> 19.5 µM'),
  ('CCCN(CCC)C(=O)c1c([N+](=O)[O-])cc(C(F)(F)F)cc1[N+](=O)[O-]', 'OVCAR-4 ovarian', '32.9 µM'),
  ('COc1ccccc1CNCCCN1C(=O)c2ccc3c4c(ccc(c24)C1=O)C(=O)N(CCCNCCNCCCN)C3=O', 'OVCAR-4 ovarian', '1.68 µM'),
  ('CN1CCc2nc(N)nc(-c3nc(N)nc4c3CN(C)CC4)c2C1', 'OVCAR-4 ovarian', '> 100 µM'),
  ('CSc1nnc(SC)nn1', 'OVCAR-4 ovarian', '32.5 µM'),
  ('O=C1c2ccccc2C(=O)C1(O)c1c[nH]c2ccccc12', 'OVCAR-4 ovarian', '> 100 µM'),
  ('CC(=O)[C@@H](C)C(=O)N1C(=O)OC[C@@]12[C@@H]1CC[C@@H](C1)C2(C)C', 'OVCAR-4 ovarian', '> 100 µM'),
  ('COC(=O)C(CC(=O)Nc1ccc(C)cc1)C(=O)C(=O)Nc1c(C(C)C)cccc1C(C)C (stereo not given)', 'OVCAR-4 ovarian', '> 100 µM');

Exam item: I am curious: what TGI value has been reported for CC1=C(/C=C/Cl)CC(Cl)C(C)(Cl)C1 (stereo not given) ?
Marked response: > 100 µM

The measurements presented in this section are drawn from PubChem BioAssay (NCI).
